Source of measurements: the supplement of paper PMC8498969

Test system: HEK293
experiment: IC50 for inhibition of ZIKV NS1 production
Can you tell me IC50 for the items I'm about to list?
Numbers only, in µM.

GET /value?item= Cc1cc(Nc2cc(NC(=O)c3c(Cl)cccc3Cl)ccn2)nc(N)n1 &field=IC50 returns 35

Record IC50 per entry; entries follow.
1. OC(c1cc(C(F)(F)F)nc2c(C(F)(F)F)cccc12)C1CCCCN1 (centres undefined)
2. O=C(NC1CCNCC1)c1n[nH]cc1NC(=O)c1c(Cl)cccc1Cl
3. C[C@@H]1O[C@@H](O[C@H]2C[C@@H](O)[C@]3(CO)[C@H]4[C@H](O)C[C@]5(C)[C@@H]([C@@H]6COC(=O)C6)CC[C@]5(O)[C@@H]4CC[C@]3(O)C2)[C@H](O)[C@H](O)[C@H]1O
4. C[C@@H]1CC[C@@]2(OC1)O[C@H]1C[C@H]3[C@@H]4CC=C5C[C@@H](O[C@@H]6O[C@H](CO)[C@@H](O[C@@H]7O[C@@H](C)[C@H](O)[C@@H](O)[C@H]7O)[C@H](O)[C@H]6O[C@@H]6O[C@@H](C)[C@H](O)[C@@H](O)[C@H]6O)CC[C@]5(C)[C@H]4CC[C@]3(C)[C@H]1[C@@H]2C
5. Cc1n[nH]c2ccc(-c3cncc(OC[C@@H](N)Cc4c[nH]c5ccccc45)c3)cc12
6. O=C(c1ccc(Nc2nccc(-c3cc4ccccc4s3)n2)cc1)N1CCC(N2CCCC2)CC1
7. c1ccc2c(-c3cnn4cc(-c5ccc(N6CCNCC6)cc5)cnc34)ccnc2c1

Response:
1. 18
2. 3.1
3. 1.5
4. 16
5. 8.5
6. 16
7. 6.1

Record IC50 per entry; entries follow.
1. Nc1ccc(-c2ccc3ncc4ccc(=O)n(-c5cccc(C(F)(F)F)c5)c4c3c2)cn1
2. Oc1cccc(-c2nc(N3CCOCC3)c3oc4ncccc4c3n2)c1
3. Cc1c(N)nc([C@H](CC(N)=O)NC[C@@H](N)C(N)=O)nc1C(=O)N[C@H](C(=O)N[C@@H](C)[C@H](O)[C@@H](C)C(=O)N[C@@H](C(=O)NCCc1nc(-c2nc(C(=O)NCCC[S+](C)C)cs2)cs1)[C@@H](C)O)C(O[C@H]1O[C@H](CO)[C@H](O)[C@@H](O)[C@H]1O[C@H]1O[C@H](CO)[C@@H](O)[C@H](OC(N)=O)[C@@H]1O)c1cnc[nH]1 (some centres undefined)
4. O=C1NCCN1CCN1CCC(c2cn(-c3ccc(F)cc3)c3ccc(Cl)cc23)CC1

Response:
[0.72, 1.6, 6.3, 7.4]

Record IC50 per entry; entries follow.
1. OC[C@H]1O[C@@H](n2cnc3c(S)ncnc32)[C@H](O)[C@@H]1O
2. CCOC(=O)C1=C(C)NC2=C(C(=O)CC(C)(C)C2)C1c1ccc(-c2ccccc2)cc1 (centres undefined)
3. CC(=O)O[C@@]12CO[C@@H]1C[C@H](O)[C@@]1(C)C(=O)[C@H](O)C3=C(C)[C@@H](OC(=O)[C@H](O)[C@@H](NC(=O)OC(C)(C)C)c4ccccc4)C[C@@](O)([C@@H](OC(=O)c4ccccc4)[C@H]21)C3(C)C
4. CO[C@H]1C(=O)[C@]2(C)[C@@H](OC)C[C@H]3OC[C@@]3(OC(C)=O)[C@H]2[C@H](OC(=O)c2ccccc2)[C@]2(O)C[C@H](OC(=O)[C@H](O)[C@@H](NC(=O)OC(C)(C)C)c3ccccc3)C(C)=C1C2(C)C
5. CCOC(=O)C1(c2ccccc2)CCN(CCC(C#N)(c2ccccc2)c2ccccc2)CC1
6. CN1CCN(Cc2ccc(NC(=O)Nc3ccc(Oc4cc(NC(=O)C5CC5)ncn4)cc3)cc2C(F)(F)F)CC1
7. CC(C)C[C@H](NC(=O)CNC(=O)c1cc(Cl)ccc1Cl)B(O)O

Response:
[8, 17, 50, 1.8, 6, 2.4, 0.23]

====

System: HEK293
experiment: IC50 for inhibition of ZIKV NS1 production
Can you tell me IC50 for the items I'm about to list?
Give bare numbers, in nM.

Please review the entries below; each comes with its answer.
GET /value?item= O=C(O)c1ccc2cc(-c3ccc(O)c(C45CC6CC(CC(C6)C4)C5)c3)ccc2c1 &field=IC50 returns 1700

GET /value?item= COC(=O)Nc1nc2cc(C(=O)c3cccs3)ccc2[nH]1 &field=IC50 returns 1100

GET /value?item= CC(C)C[C@H](NC(=O)[C@@H](NC(=O)c1cccc(-c2ccccc2)n1)[C@@H](C)O)B(O)O &field=IC50 returns 59

GET /value?item= CCCCCCCCc1ccc(CCC(N)(CO)CO)cc1 &field=IC50 returns 14000

GET /value?item= CC(=O)[C@]1(O)Cc2c(O)c3c(c(O)c2[C@@H](O[C@H]2C[C@H](N)[C@H](O)[C@H](C)O2)C1)C(=O)c1ccccc1C3=O &field=IC50 returns 170

GET /value?item= Cc1nc2cnc3ccc(C#Cc4cccnc4)cc3c2n1-c1ccc(C(C)(C)C#N)cc1 &field=IC50 returns 1400

GET /value?item= Oc1ccc(-c2ccc(-c3cc(Nc4cccc(CNC5CC5)c4)n[nH]3)cc2)c(O)c1 &field=IC50 returns 1500

GET /value?item= CCCCc1ccc2[nH]c(NC(=O)OC)nc2c1 &field=IC50 returns 690

Record IC50 per entry; entries follow.
1. CCn1nnc2c(N3CCOCC3)nc(-c3ccc(NC(=O)Nc4ccc(C(=O)N5CCN(C)CC5)cc4)cc3)nc21
2. CCOC(=O)C1=C(C)NC(=S)NC1c1cccc(O)c1 (stereo unspecified)
3. FC(F)c1nc2ccccc2n1-c1nc(N2CCOCC2)nc(N2CCOCC2)n1
4. S=C(SSC(=S)N1CCCCC1)N1CCCCC1
5. Cc1c2oc3c(C)ccc(C(=O)N[C@@H]4C(=O)N[C@H](C(C)C)C(=O)N5CCC[C@H]5C(=O)N(C)CC(=O)N(C)[C@@H](C(C)C)C(=O)O[C@@H]4C)c3nc-2c(C(=O)N[C@@H]2C(=O)N[C@H](C(C)C)C(=O)N3CCC[C@H]3C(=O)N(C)CC(=O)N(C)[C@@H](C(C)C)C(=O)O[C@@H]2C)c(N)c1=O

Response:
1600
50000
3900
870
350

Record IC50 per entry; entries follow.
1. O=c1[nH]c(=O)n([C@H]2C[C@H](O)[C@@H](CO)O2)cc1F
2. CO[C@H]1[C@H](O)[C@@H](O)[C@H](n2c3c(Cl)cccc3c3c4c(c5c6cccc(Cl)c6[nH]c5c32)C(=O)NC4=O)O[C@@H]1CO
3. COC[C@H](NC(=O)c1cnc(C)s1)C(=O)N[C@@H](COC)C(=O)N[C@@H](Cc1ccccc1)C(=O)[C@@]1(C)CO1

Response:
[920, 2100, 320]

Record IC50 per entry; entries follow.
1. CC(C)(C)CC(C)(C)c1ccc(OCCOCC[N+](C)(C)Cc2ccccc2)cc1
2. COc1ccc(-c2ccc3ncc4c(c3c2)n(-c2ccc(N3CCNCC3)c(C(F)(F)F)c2)c(=O)n4C)cn1
3. CC(NCc1ccc2c(c1)nc(NC(=O)c1ccc(-c3cn[nH]c3)s1)n2CC(C)(C)O)C(C)(C)C (stereo unspecified)
4. C[C@H]1CCC/C=C/[C@@H]2C[C@H](O)C[C@H]2[C@H](O)/C=C/C(=O)O1
5. CCCCCC[C@H]1C(=O)O[C@H](C)[C@H](NC(=O)c2cccc(NC=O)c2O)C(=O)O[C@@H](C)[C@@H]1OC(=O)CC(C)C
6. CC(C)n1nc(-c2cc3cc(O)ccc3[nH]2)c2c(N)ncnc21
7. O=[N+]([O-])c1ccc(O)c2ncccc12

Response:
[9000, 1600, 9600, 430, 12, 16000, 6000]

Record IC50 per entry; entries follow.
1. NC(=O)Nc1cc(-c2cccc(F)c2)sc1C(=O)N[C@H]1CCCNC1
2. C[n+]1cc2c3c(ccc2c2ccc4cc5c(cc4c21)OCO5)OCO3
3. c1ccc2c(CCNc3ccc(Nc4ccncc4)cc3)c[nH]c2c1

Response:
1: 370; 2: 2900; 3: 23000

====

System: HEK293
experiment: maximal inhibition of ZIKV NS1 production (% inhibition); higher = stronger antiviral effect
Can you tell me maximal inhibition for the items I'm about to list?

Please review the entries below; each comes with its answer.
GET /value?item= CC(C)(C)CC(C)(C)c1ccc(OCCOCC[N+](C)(C)Cc2ccccc2)cc1 &field=maximal inhibition returns 103

GET /value?item= O=C1[C@H](Cc2ccc(O)cc2)N2C(=O)CCN(C(=O)NCc3ccccc3)[C@H]2CN1Cc1cccc2ccccc12 &field=maximal inhibition returns 103

Record maximal inhibition per entry; entries follow.
1. CCCCCCCCc1ccc(CCC(N)(CO)CO)cc1
2. CC[C@@H]([C@H](C)O)n1ncn(-c2ccc(N3CCN(c4ccc(OC[C@@H]5CO[C@@](Cn6cncn6)(c6ccc(F)cc6F)C5)cc4)CC3)cc2)c1=O
3. CCOC(=O)N1CCN(/[N+]([O-])=N/Oc2ccc([N+](=O)[O-])cc2C#N)CC1

Response:
1: 102; 2: 73; 3: 74
